- Tested on: M. kansasii My 235/80
- Assay Text: microbe, parasite or virus in culture
- Type: cell-based, Mycobacterium kansasii
- Assay Setup: Mycobacterium kansasii, MY235/80, 168 h; 7 d, 37 °C; read-out: MIC M. kansasii 235/80 7 d

- Chemical Structure: "CCOP(=S)(OCC)Oc1cc(Cl)ccc1C(=O)Nc1ccc(Cl)cc1"
  Assay System: "M. kansasii My 235/80"
  MIC (µM): 32
- Chemical Structure: "CCOP(=S)(OCC)Oc1cc(Cl)ccc1C(=O)Nc1ccc(Br)cc1"
  Assay System: "M. kansasii My 235/80"
  MIC (µM): 32
- Chemical Structure: "CCOP(=S)(OCC)Oc1ccc(Br)cc1C(=O)Nc1cccc(F)c1"
  Assay System: "M. kansasii My 235/80"
  MIC (µM): 62.5
- Chemical Structure: "CCOP(=S)(OCC)Oc1ccc(Cl)cc1C(=O)Nc1cccc(Cl)c1"
  Assay System: "M. kansasii My 235/80"
  MIC (µM): 250
- Chemical Structure: "CCOP(=S)(OCC)Oc1cc(Cl)ccc1C(=O)Nc1cccc(C(F)(F)F)c1"
  Assay System: "M. kansasii My 235/80"
  MIC (µM): 32
- Chemical Structure: "CCOP(=S)(OCC)Oc1cc(Cl)ccc1C(=O)Nc1ccc(F)cc1"
  Assay System: "M. kansasii My 235/80"
  MIC (µM): 62.5
- Chemical Structure: "CCOP(=S)(OCC)Oc1ccc(Br)cc1C(=O)Nc1ccc(Br)cc1"
  Assay System: "M. kansasii My 235/80"
  MIC (µM): 125
- Chemical Structure: "CCOP(=S)(OCC)Oc1cc(Cl)ccc1C(=O)Nc1cccc(Cl)c1"
  Assay System: "M. kansasii My 235/80"
  MIC (µM): 32
- Chemical Structure: "CCOP(=S)(OCC)Oc1ccc(Cl)cc1C(=O)Nc1cccc(F)c1"
  Assay System: "M. kansasii My 235/80"
  MIC (µM): 250
- Chemical Structure: "CCOP(=S)(OCC)Oc1ccc(Cl)cc1C(=O)Nc1ccc(F)cc1"
  Assay System: "M. kansasii My 235/80"
  MIC (µM): 250
- Chemical Structure: "CCOP(=S)(OCC)Oc1ccc(Cl)cc1C(=O)Nc1ccc(Cl)cc1"
  Assay System: "M. kansasii My 235/80"
  MIC (µM): 32
- Chemical Structure: "CCOP(=S)(OCC)Oc1ccc(Cl)cc1C(=O)Nc1ccc(Cl)c(Cl)c1"
  Assay System: "M. kansasii My 235/80"
  MIC (µM): 125
- Chemical Structure: "CCOP(=S)(OCC)Oc1ccc(Br)cc1C(=O)Nc1ccc(C(F)(F)F)cc1"
  Assay System: "M. kansasii My 235/80"
  MIC (µM): 32
- Chemical Structure: "CCOP(=S)(OCC)Oc1ccc(Cl)cc1C(=O)Nc1cccc(Br)c1"
  Assay System: "M. kansasii My 235/80"
  MIC (µM): 125
- Chemical Structure: "CCOP(=S)(OCC)Oc1ccc(Br)cc1C(=O)Nc1ccc(F)cc1"
  Assay System: "M. kansasii My 235/80"
  MIC (µM): 125
- Chemical Structure: "CCOP(=S)(OCC)Oc1ccc(Cl)cc1C(=O)Nc1cccc(C(F)(F)F)c1"
  Assay System: "M. kansasii My 235/80"
  MIC (µM): 125
- Chemical Structure: "CCOP(=S)(OCC)Oc1cc(Cl)ccc1C(=O)Nc1cccc(Br)c1"
  Assay System: "M. kansasii My 235/80"
  MIC (µM): 32
- Chemical Structure: "CCOP(=S)(OCC)Oc1ccc(Br)cc1C(=O)Nc1cccc(Br)c1"
  Assay System: "M. kansasii My 235/80"
  MIC (µM): 125
- Chemical Structure: "CCOP(=S)(OCC)Oc1ccc(Br)cc1C(=O)Nc1ccc(Cl)cc1"
  Assay System: "M. kansasii My 235/80"
  MIC (µM): 125
- Chemical Structure: "CCOP(=S)(OCC)Oc1cc(Cl)ccc1C(=O)Nc1ccc(C(F)(F)F)cc1"
  Assay System: "M. kansasii My 235/80"
  MIC (µM): 16
